Quick list: PBM binding z-score per entry.
test system: PPARa:RXRa (NR concentration 270 nM, RXRa partner concentration 90 nM); test: PBM binding z-score (relative to random genomic background probes); higher = stronger binding; sequences stand for … in GC…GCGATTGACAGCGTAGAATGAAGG
Give a plain numeric answer without units written out.

Study these solved cases before continuing.
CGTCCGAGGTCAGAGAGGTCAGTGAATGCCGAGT    5.62
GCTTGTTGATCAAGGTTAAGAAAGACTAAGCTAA    1.09
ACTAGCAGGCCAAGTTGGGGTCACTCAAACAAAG    4.63

// query Field: PBM binding z-score (PPARa:RXRa (NR concentration 270 nM, RXRa partner concentration 90 nM)). Entry: "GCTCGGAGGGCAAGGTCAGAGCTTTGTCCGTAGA"
// result 3

// query Field: PBM binding z-score (PPARa:RXRa (NR concentration 270 nM, RXRa partner concentration 90 nM)). Entry: "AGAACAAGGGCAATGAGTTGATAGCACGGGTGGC"
// result 0.573

// query Field: PBM binding z-score (PPARa:RXRa (NR concentration 270 nM, RXRa partner concentration 90 nM)). Entry: "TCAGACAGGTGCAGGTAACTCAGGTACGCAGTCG"
// result 0.506

// query Field: PBM binding z-score (PPARa:RXRa (NR concentration 270 nM, RXRa partner concentration 90 nM)). Entry: "CATACATGGTCAGCTAGGCCAGAGTAGGGACGGC"
// result -1.12

// query Field: PBM binding z-score (PPARa:RXRa (NR concentration 270 nM, RXRa partner concentration 90 nM)). Entry: "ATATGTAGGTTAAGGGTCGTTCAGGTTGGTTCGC"
// result 6.01

// query Field: PBM binding z-score (PPARa:RXRa (NR concentration 270 nM, RXRa partner concentration 90 nM)). Entry: "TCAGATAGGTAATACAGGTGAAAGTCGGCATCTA"
// result 1.72

// query Field: PBM binding z-score (PPARa:RXRa (NR concentration 270 nM, RXRa partner concentration 90 nM)). Entry: "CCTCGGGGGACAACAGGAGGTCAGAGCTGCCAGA"
// result 3.13

// query Field: PBM binding z-score (PPARa:RXRa (NR concentration 270 nM, RXRa partner concentration 90 nM)). Entry: "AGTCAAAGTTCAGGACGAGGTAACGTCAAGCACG"
// result 3.5

// query Field: PBM binding z-score (PPARa:RXRa (NR concentration 270 nM, RXRa partner concentration 90 nM)). Entry: "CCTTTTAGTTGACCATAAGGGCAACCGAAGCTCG"
// result 0.649

---

Quick list: PBM binding z-score per entry.
system: PPARa:RXRa (NR concentration 270 nM, RXRa partner concentration 90 nM); experiment: PBM binding z-score (relative to random genomic background probes); higher = stronger binding; sequences stand for … in GC…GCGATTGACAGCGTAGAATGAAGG
Give a plain numeric answer without units written out.

Study these solved cases before continuing.
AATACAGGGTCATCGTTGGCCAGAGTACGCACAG    5.96
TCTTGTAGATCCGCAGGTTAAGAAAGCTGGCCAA    0.634
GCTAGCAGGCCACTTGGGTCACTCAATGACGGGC    0.888
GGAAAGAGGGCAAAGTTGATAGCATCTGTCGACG    4.24
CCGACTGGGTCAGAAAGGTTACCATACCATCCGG    3.21

// query Field: PBM binding z-score (PPARa:RXRa (NR concentration 270 nM, RXRa partner concentration 90 nM)). Entry: "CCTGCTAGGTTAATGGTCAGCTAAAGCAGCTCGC"
// result 0.798

// query Field: PBM binding z-score (PPARa:RXRa (NR concentration 270 nM, RXRa partner concentration 90 nM)). Entry: "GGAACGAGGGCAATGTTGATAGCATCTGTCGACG"
// result 1.66

// query Field: PBM binding z-score (PPARa:RXRa (NR concentration 270 nM, RXRa partner concentration 90 nM)). Entry: "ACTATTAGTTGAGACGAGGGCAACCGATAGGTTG"
// result 0.636

// query Field: PBM binding z-score (PPARa:RXRa (NR concentration 270 nM, RXRa partner concentration 90 nM)). Entry: "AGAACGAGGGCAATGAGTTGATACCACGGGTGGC"
// result 1.36

// query Field: PBM binding z-score (PPARa:RXRa (NR concentration 270 nM, RXRa partner concentration 90 nM)). Entry: "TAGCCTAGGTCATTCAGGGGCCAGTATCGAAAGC"
// result 3.76

// query Field: PBM binding z-score (PPARa:RXRa (NR concentration 270 nM, RXRa partner concentration 90 nM)). Entry: "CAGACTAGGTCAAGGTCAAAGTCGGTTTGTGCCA"
// result 5.62

// query Field: PBM binding z-score (PPARa:RXRa (NR concentration 270 nM, RXRa partner concentration 90 nM)). Entry: "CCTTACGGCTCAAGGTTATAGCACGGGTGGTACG"
// result 0.445
